Source listed as patent US11826351B2.

Molecular target: Recombinant BTK^C481S kinase (Homo sapiens, UniProt Q06187, C481S)
Sequence (Q06187 whole entry C481S): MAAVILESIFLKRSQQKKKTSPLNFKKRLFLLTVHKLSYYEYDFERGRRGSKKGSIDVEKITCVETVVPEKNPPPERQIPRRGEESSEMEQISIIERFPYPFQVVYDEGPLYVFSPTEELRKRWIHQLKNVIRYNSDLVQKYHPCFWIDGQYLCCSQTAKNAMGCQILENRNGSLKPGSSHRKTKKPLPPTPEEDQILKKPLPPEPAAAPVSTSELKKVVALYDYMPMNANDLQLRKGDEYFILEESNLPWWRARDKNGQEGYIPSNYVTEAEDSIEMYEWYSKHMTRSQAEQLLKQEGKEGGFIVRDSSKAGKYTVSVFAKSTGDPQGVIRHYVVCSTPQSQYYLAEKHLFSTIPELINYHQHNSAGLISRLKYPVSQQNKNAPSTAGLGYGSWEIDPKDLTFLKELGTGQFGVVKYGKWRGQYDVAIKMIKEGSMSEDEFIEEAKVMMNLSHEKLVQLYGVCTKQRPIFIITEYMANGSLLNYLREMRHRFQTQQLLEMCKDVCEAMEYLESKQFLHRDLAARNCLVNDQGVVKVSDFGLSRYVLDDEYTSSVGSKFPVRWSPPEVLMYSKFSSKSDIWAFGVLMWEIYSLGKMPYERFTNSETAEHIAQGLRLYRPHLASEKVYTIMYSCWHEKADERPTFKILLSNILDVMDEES
Experiment: BTK C481S binding affinity (LanthaScreen TR-FRET)
Details: Kinase Tracer 236, 5 h incubation
pIC50: −log10 of the molar value.
Experimental Endpoint: pIC50

# get_value(readout= pIC50, system= Recombinant BTK^C481S kinase (Homo sapiens, UniProt Q06187, C481S)) for COc1ccccc1C(=O)NCc1ccc(-c2nn(-c3cccnc3)c(N)c2C(N)=O)cc1
> 8.00

# get_value(readout= pIC50, system= Recombinant BTK^C481S kinase (Homo sapiens, UniProt Q06187, C481S)) for COc1ccc(F)cc1C(=O)NCc1ccc(-c2nn(C(C)C3CCOC3)c(N)c2C(N)=O)cc1 (mixture of isomers)
> 8.00

# get_value(readout= pIC50, system= Recombinant BTK^C481S kinase (Homo sapiens, UniProt Q06187, C481S)) for COc1ccc(F)cc1C(=O)NCc1ccc(-c2nn([C@H](C)C(F)(F)F)c(N)c2C(N)=O)cc1 (single isomer, unassigned) [Example 163a]
> 8.00

# get_value(readout= pIC50, system= Recombinant BTK^C481S kinase (Homo sapiens, UniProt Q06187, C481S)) for COc1ccccc1C(=O)NCc1cc(F)c(-c2nn(C3CCOCC3)c(N)c2C(N)=O)cc1F
> 8.00

# get_value(readout= pIC50, system= Recombinant BTK^C481S kinase (Homo sapiens, UniProt Q06187, C481S)) for COc1ccccc1C(=O)NCc1ccc(-c2nn(C3CCC(=O)C3)c(N)c2C(N)=O)cc1 (stereo not shown)
> 8.00

# get_value(readout= pIC50, system= Recombinant BTK^C481S kinase (Homo sapiens, UniProt Q06187, C481S)) for COc1ccccc1C(=O)NCc1ccc(-c2nn(C3CN(C)CC3(F)F)c(N)c2C(N)=O)cc1F (stereo not shown)
> 8.00

# get_value(readout= pIC50, system= Recombinant BTK^C481S kinase (Homo sapiens, UniProt Q06187, C481S)) for COc1ccc(F)cc1C(=O)NCc1ccc(-c2nn(C(C)C(F)(F)F)c(N)c2C(N)=O)c(F)c1 (stereo not shown)
> 8.00

# get_value(readout= pIC50, system= Recombinant BTK^C481S kinase (Homo sapiens, UniProt Q06187, C481S)) for COc1ccccc1C(=O)NCc1ccc(-c2nn(C3CCCC3)c(N)c2C(N)=O)cc1
> 8.00

# get_value(readout= pIC50, system= Recombinant BTK^C481S kinase (Homo sapiens, UniProt Q06187, C481S)) for COc1ccccc1C(=O)NCc1ccc(-c2nn(C3CCC(O)CC3)c(N)c2C(N)=O)cc1 (single isomer, unassigned) [Example 34b]
> 8.00

# get_value(readout= pIC50, system= Recombinant BTK^C481S kinase (Homo sapiens, UniProt Q06187, C481S)) for COc1ccccc1C(=O)NCc1ccc(-c2nn(-c3ccccc3F)c(N)c2C(N)=O)cc1
> 8.00

# get_value(readout= pIC50, system= Recombinant BTK^C481S kinase (Homo sapiens, UniProt Q06187, C481S)) for COc1ccccc1C(=O)NCc1ccc(-c2nn(CCC#N)c(N)c2C(N)=O)cc1
7.00 to 8.00

# get_value(readout= pIC50, system= Recombinant BTK^C481S kinase (Homo sapiens, UniProt Q06187, C481S)) for COc1ccc(F)cc1C(=O)NCc1ccc(-c2nn([C@H](C)C(F)(F)F)c(N)c2C(N)=O)cc1 (single isomer, unassigned) [Example 163b]
> 8.00

# get_value(readout= pIC50, system= Recombinant BTK^C481S kinase (Homo sapiens, UniProt Q06187, C481S)) for COc1ccccc1C(=O)NCc1ccc(-c2nn(-c3ccccc3)c(N)c2C(N)=O)cc1
> 8.00

# get_value(readout= pIC50, system= Recombinant BTK^C481S kinase (Homo sapiens, UniProt Q06187, C481S)) for COc1ccccc1C(=O)NCc1ccc(-c2nn(-c3ccccc3C)c(N)c2C(N)=O)cc1
> 8.00

# get_value(readout= pIC50, system= Recombinant BTK^C481S kinase (Homo sapiens, UniProt Q06187, C481S)) for CNc1c(C(N)=O)c(-c2ccc(CNC(=O)c3ccccc3OC)cc2)nn1-c1cccnc1
7.00 to 8.00

# get_value(readout= pIC50, system= Recombinant BTK^C481S kinase (Homo sapiens, UniProt Q06187, C481S)) for COc1ccccc1C(=O)NCc1ccc(-c2nn(C3CCC4(CC3)COC4)c(N)c2C(N)=O)cc1
> 8.00

# get_value(readout= pIC50, system= Recombinant BTK^C481S kinase (Homo sapiens, UniProt Q06187, C481S)) for CCOC(=O)C1CCCC(n2nc(-c3ccc(CNC(=O)c4ccccc4OC)cc3)c(C(N)=O)c2N)C1 (single isomer, unassigned) [Example 55]
> 8.00

# get_value(readout= pIC50, system= Recombinant BTK^C481S kinase (Homo sapiens, UniProt Q06187, C481S)) for COc1ccccc1C(=O)NCc1ccc(-c2nn(C[C@@H]3CCCNC3)c(N)c2C(N)=O)cc1
5.00 to 6.00

# get_value(readout= pIC50, system= Recombinant BTK^C481S kinase (Homo sapiens, UniProt Q06187, C481S)) for COc1ccc(F)cc1C(=O)NCc1ccc(-c2nn(C3CCOC3)c(N)c2C(N)=O)cc1 (stereo not shown)
> 8.00

# get_value(readout= pIC50, system= Recombinant BTK^C481S kinase (Homo sapiens, UniProt Q06187, C481S)) for COc1ccccc1C(=O)NCc1cc(F)c(-c2nn(C3CCCC3)c(N)c2C(N)=O)cc1F
> 8.00

# get_value(readout= pIC50, system= Recombinant BTK^C481S kinase (Homo sapiens, UniProt Q06187, C481S)) for COc1ccccc1C(=O)NCc1ccc(-c2nn([C@H]3CC[C@H](F)C3)c(N)c2C(N)=O)cc1 (relative stereo)
> 8.00

# get_value(readout= pIC50, system= Recombinant BTK^C481S kinase (Homo sapiens, UniProt Q06187, C481S)) for COc1ccccc1C(=O)NCc1ccc(-c2nn(C3CC3)c(N)c2C(N)=O)cc1
> 8.00
